Below is a list of entries, each paired with its recorded STAT1/STAT3 EC50 ratio (higher is better); FACS, HT29 cells value.
- Subject Of Test: T1, heterodimeric receptor complex (IL-22Rα/IL-10Rβ) (human, UniProt Q8N6P7 16-574; Q08334 20-325)
- T1 sequence (looked up) 1: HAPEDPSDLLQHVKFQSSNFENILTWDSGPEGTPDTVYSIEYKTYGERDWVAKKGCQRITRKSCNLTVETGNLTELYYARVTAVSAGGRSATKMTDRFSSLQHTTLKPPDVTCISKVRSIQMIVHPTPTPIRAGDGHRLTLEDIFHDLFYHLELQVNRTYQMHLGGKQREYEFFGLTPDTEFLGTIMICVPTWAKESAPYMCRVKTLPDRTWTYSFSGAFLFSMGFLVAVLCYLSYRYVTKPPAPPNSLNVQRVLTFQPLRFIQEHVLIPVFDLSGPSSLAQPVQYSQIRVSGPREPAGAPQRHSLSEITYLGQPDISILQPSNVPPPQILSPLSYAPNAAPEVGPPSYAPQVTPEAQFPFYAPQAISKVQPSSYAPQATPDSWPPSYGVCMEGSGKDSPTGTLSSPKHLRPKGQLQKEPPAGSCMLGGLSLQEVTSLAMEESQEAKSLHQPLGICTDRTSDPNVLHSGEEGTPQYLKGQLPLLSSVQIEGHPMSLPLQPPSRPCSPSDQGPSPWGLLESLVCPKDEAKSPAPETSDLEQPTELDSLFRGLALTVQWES
- T1 sequence (looked up) 2: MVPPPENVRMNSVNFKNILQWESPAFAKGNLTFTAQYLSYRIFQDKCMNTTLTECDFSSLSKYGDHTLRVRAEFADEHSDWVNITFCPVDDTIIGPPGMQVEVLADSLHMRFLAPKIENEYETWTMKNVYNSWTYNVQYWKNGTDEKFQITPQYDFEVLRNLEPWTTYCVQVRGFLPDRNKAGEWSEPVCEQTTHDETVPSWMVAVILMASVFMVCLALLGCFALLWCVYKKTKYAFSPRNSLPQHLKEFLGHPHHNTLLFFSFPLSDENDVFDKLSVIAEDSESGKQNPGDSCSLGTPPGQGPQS
- Test Description: cell-based or functional assay
Parameter: STAT1/STAT3 EC50 ratio (higher is better); FACS, HT29 cells

Binder	Assay Result
hB3-his (ligand) APISSHCRLDKENFQQPYITNRTFMLAKEASLADNNTDVRLIGEKLFHGVSMSERCYLMKQVLNFTLEEVLFPQSDRFQPYMAEVVPFLAALSNALSTCHIEGDDLHIQRNVQKLKDTVKKLGESGEIKAIGELDLLFMSLRNACIHHHHHH	9.3
60K-PEG-IL22-D109C (ligand, Cys at position 76 (SEQ ID NO:1 numbering) conjugated to 60 kDa PEG-maleimide (thioether linkage)) APISSHCRLDKSNFQQPYITNRTFMLAKEASLADNNTDVRLIGEKLFHGVSMSERCYLMKQVLNFTLEEVLFPQSCRFQPYMQEVVPFLARLSNRLSTCHIEGDDLHIQRNVQKLKDTVKKLGESGEIKAIGELDLLFMSLRNACI	16.3
80K-PEG-IL22-D109C (ligand, Cys at position 76 (SEQ ID NO:1 numbering) conjugated to 80 kDa PEG-maleimide (thioether linkage)) APISSHCRLDKSNFQQPYITNRTFMLAKEASLADNNTDVRLIGEKLFHGVSMSERCYLMKQVLNFTLEEVLFPQSCRFQPYMQEVVPFLARLSNRLSTCHIEGDDLHIQRNVQKLKDTVKKLGESGEIKAIGELDLLFMSLRNACI	7.1
40K-PEG-IL22-D109C (ligand, Cys at position 76 (SEQ ID NO:1 numbering) conjugated to 40 kDa PEG-maleimide (thioether linkage)) APISSHCRLDKSNFQQPYITNRTFMLAKEASLADNNTDVRLIGEKLFHGVSMSERCYLMKQVLNFTLEEVLFPQSCRFQPYMQEVVPFLARLSNRLSTCHIEGDDLHIQRNVQKLKDTVKKLGESGEIKAIGELDLLFMSLRNACI	31.3
